Attribution: patent US11530233B2

# Test system: HEK-293 cells
# method-summary: NAD+ concentration in HEK-293 cells after treatment with nicotinic acid ester mononucleotides (NAD+ cycling assay)
# Type: cell-based, human
# reported-conditions: 25 μM, HEK293, 24 hr incubation
measured-parameter: NAD^+ Level (% versus control)
# output: bare number, implied unit % versus control

Examples with answers:
>>> measurement("CCCCOC(=O)c1ccc[n+]([C@@H]2O[C@H](COP(=O)([O-])O)[C@H](O)[C@@H]2O)c1")
104
>>> measurement("CCCCCCCOC(=O)c1ccc[n+]([C@@H]2O[C@H](COP(=O)([O-])O)[C@H](O)[C@@H]2O)c1")
152
>>> measurement("CCCCCCOC(=O)c1ccc[n+]([C@@H]2O[C@H](COP(=O)([O-])O)[C@H](O)[C@@H]2O)c1")
136

-- ask Provide NAD^+ Level (% versus control) value for the following compound: CCCCCOC(=O)c1ccc[n+]([C@@H]2O[C@H](COP(=O)([O-])O)[C@H](O)[C@@H]2O)c1
-- reply 80
